measuredOn: human Siglec-8 (full-length, on transfected CHO or 293 cells, or native on human eosinophils) (human, UniProt Q9NYZ4 17-499)
Sequence (Q9NYZ4 17-499): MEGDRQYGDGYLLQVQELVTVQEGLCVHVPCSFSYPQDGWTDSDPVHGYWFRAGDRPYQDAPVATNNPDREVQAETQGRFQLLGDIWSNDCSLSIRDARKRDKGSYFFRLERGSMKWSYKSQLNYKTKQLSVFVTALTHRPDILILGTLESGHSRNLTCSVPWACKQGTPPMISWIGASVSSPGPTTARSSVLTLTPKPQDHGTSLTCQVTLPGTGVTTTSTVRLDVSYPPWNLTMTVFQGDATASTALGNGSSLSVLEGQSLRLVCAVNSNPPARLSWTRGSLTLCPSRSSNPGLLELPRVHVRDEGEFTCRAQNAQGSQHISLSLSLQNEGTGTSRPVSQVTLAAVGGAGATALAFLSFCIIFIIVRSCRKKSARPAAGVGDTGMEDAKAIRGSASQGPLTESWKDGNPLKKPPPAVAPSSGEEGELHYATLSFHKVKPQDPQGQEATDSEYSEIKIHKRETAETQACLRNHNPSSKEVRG
assayNotes: flow cytometry on 293 cells transiently transfected with full-length human Siglec-8; A647 anti-human Fc-gamma secondary; median fluorescence, nonlinear fit; table under the graph (Kd column without unit, concentration axis nM Ab)
measurementType: pKd
pKd is defined as minus the log10 of a concentration measured in mol/L.

>>> reading("Siglec8 hzG2v12, monomeric VHH-hIgG1 fusion (Fc NNT) (Fc fusion, Monomeric format; not shown: non-dimerizing human IgG1 Fc variant lacking a hinge (Fc NNT)) EVQLLESGGGEVQPGGSLRLSCAASGSISIFSMYVVAWYRQAPGKEREWVAFIQRGGTANYAESAKGRFTISRDNAKNTVYLQMSSLRAEDTAVYYCNYISSDNEIGGPWGQGTLVTVKP")
9.49

Recorded result, Siglec8 hzG2v14, monomeric VHH-hIgG1 fusion (Fc NNT) (Fc fusion, Monomeric format; not shown: non-dimerizing human IgG1 Fc variant lacking a hinge (Fc NNT)) EVQLLESGGGEVQPGGSLRLSCAASGSISIFSMYVVAWYRQAPGKEREWVAFIQRGGTANYAESAKGRFTISRDNAKNTVYLQMSSLRAEDTAVYYCNYINTDNEIGGPWGQGTLVTVKP , pKd: 9.79

Recorded result, Siglec8 hzG2v13, monomeric VHH-hIgG1 fusion (Fc NNT) (Fc fusion, Monomeric format; not shown: non-dimerizing human IgG1 Fc variant lacking a hinge (Fc NNT)) EVQLLESGGGEVQPGGSLRLSCAASGSISIFSMYVVAWYRQAPGKEREWVAFIQRGGTANYAESAKGRFTISRDNAKNTVYLQMSSLRAEDTAVYYCNYITSDNEIGGPWGQGTLVTVKP , pKd: 9.86

Recorded result, llama anti-Siglec8-G2 VHH (lmG2), monomeric VHH-hIgG1 fusion (Fc NNT) (Fc fusion, Monomeric format; also called parental clone; not shown: non-dimerizing human IgG1 Fc variant lacking a hinge (Fc NNT)) QVTLKESGGGLVRTGGSLRLSCAASGSISIFSMYVVAWYRQAPGKQREWVAFIQRGGTANYADSAKGRFTISRDNAKNTVYLQMASLKPDDTAVYYCNYINSDNEIGGPWGQGTQVTVKP , pKd: 9.91

Values were extracted from patent US20250042997A1.
